target: biotinylated labeled human GPC3 protein (produced in-house) (human, UniProt P51654 25-559, limits assumed, biotinylated (Dojindo, Cat. No. LK03); sites not stated); experiment: ELISA, biotinylated human GPC3 protein
recorded_metric: OD450 at 0.011 nM (OD450)
Return type: number; implicit unit OD450.

Known results for binders:
- binder: "hAb006LH3L1c (antibody, human IgG1, V domains shown, Humanized F3.38.7; VH H3 + VL L1c; expressed as human IgG1) VH: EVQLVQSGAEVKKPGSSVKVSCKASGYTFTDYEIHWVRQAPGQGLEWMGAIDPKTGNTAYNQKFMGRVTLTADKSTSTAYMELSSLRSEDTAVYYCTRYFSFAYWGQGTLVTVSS VL: DIVMTQTPLSLPVTPGEPASISCRSSQTFVHSNRNTYLQWYLQKPGQSPQLLIYKVSNRFSGVPDRFSGSGSGTDFTLKISRVEAEDVGVYYCFQGSHVPYTFGQGTKLEIK"
  recorded_metric: "OD450 at 0.011 nM"
  value_reported: 0.265
- binder: "hAb006LH3L1d (antibody, human IgG1, V domains shown, Humanized F3.38.7; VH H3 + VL L1d; expressed as human IgG1) VH: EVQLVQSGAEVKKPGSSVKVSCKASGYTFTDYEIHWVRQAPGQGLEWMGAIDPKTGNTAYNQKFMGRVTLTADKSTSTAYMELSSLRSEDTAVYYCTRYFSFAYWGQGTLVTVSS VL: DIVMTQTPLSLPVTPGEPASISCRSSQTFVHSNSNTYLQWYLQKPGQSPQLLIYKVSNRFSGVPDRFSGSGSGTDFTLKISRVEAEDVGVYYCFQGSHVPYTFGQGTKLEIK"
  recorded_metric: "OD450 at 0.011 nM"
  value_reported: 0.228
- binder: "hAb006LH3L1e (antibody, human IgG1, V domains shown, Humanized F3.38.7; VH H3 + VL L1e; expressed as human IgG1) VH: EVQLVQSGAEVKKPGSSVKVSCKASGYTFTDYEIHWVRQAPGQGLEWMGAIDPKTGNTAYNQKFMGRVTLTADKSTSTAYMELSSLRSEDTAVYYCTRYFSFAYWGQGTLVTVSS VL: DIVMTQTPLSLPVTPGEPASISCRSSQTFVHSNVNTYLQWYLQKPGQSPQLLIYKVSNRFSGVPDRFSGSGSGTDFTLKISRVEAEDVGVYYCFQGSHVPYTFGQGTKLEIK"
  recorded_metric: "OD450 at 0.011 nM"
  value_reported: 0.187
- binder: "hAb007LH1L1d (antibody, human IgG1, V domains shown, Humanized F3.81.19; VH H1 + VL L1d; expressed as human IgG1) VH: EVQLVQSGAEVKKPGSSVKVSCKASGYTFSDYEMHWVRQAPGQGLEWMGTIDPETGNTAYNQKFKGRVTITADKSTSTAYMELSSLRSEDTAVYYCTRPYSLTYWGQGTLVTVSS VL: DIVMTQTPLSLPVTPGEPASISCRSSQSFVHSNSDTYLQWYLQKPGQSPQLLIYKVSNRFSGVPDRFSGSGSGTDFTLKISRVEAEDVGVYYCFQGSHVPYTFGQGTKLEIK"
  recorded_metric: "OD450 at 0.011 nM"
  value_reported: 0.101
- binder: "GC33 IgG (antibody, V domains shown, Control antibody expressed as complete IgG; also called codrituzumab) VH: QVQLVQSGAEVKKPGASVKVSCKASGYTFTDYEMHWVRQAPGQGLEWMGALDPKTGDTAYSQKFKGRVTLTADKSTSTAYMELSSLTSEDTAVYYCTRFYSYTYWGQGTLVTVSS VL: DVVMTQSPLSLPVTPGEPASISCRSSQSLVHSNRNTYLHWYLQKPGQSPQLLIYKVSNRFSGVPDRFSGSGSGTDFTLKISRVEAEDVGVYYCSQNTHVPPTFGQGTKLEIKR"
  recorded_metric: "OD450 at 0.011 nM"
  value_reported: 0.127

QUERY: Value lookup for OD450 at 0.011 nM; key = hAb007LH1L1c (antibody, human IgG1, V domains shown, Humanized F3.81.19; VH H1 + VL L1c; expressed as human IgG1) VH: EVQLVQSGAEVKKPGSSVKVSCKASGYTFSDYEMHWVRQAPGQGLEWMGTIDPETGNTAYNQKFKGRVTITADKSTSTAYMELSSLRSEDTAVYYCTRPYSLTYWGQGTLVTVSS VL: DIVMTQTPLSLPVTPGEPASISCRSSQSFVHSNADTYLQWYLQKPGQSPQLLIYKVSNRFSGVPDRFSGSGSGTDFTLKISRVEAEDVGVYYCFQGSHVPYTFGQGTKLEIK
RESULT: 0.098

QUERY: Value lookup for OD450 at 0.011 nM; key = hAb007LH1L1e (antibody, human IgG1, V domains shown, Humanized F3.81.19; VH H1 + VL L1e; expressed as human IgG1) VH: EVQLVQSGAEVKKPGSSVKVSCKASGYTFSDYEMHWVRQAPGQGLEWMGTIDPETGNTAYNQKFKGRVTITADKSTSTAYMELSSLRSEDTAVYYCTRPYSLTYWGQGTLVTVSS VL: DIVMTQTPLSLPVTPGEPASISCRSSQSFVHSNVDTYLQWYLQKPGQSPQLLIYKVSNRFSGVPDRFSGSGSGTDFTLKISRVEAEDVGVYYCFQGSHVPYTFGQGTKLEIK
RESULT: 0.058

Each recorded value in this set is attributed to patent US20260116991A1.
